# test description: PET imaging and biodistribution in SK-MEL-24 tumor-bearing mice
# Format: in vivo, mouse
# experimental conditions: mouse, lacrimal gland, intravenous; SK-MEL-24 in NSG mice; 20 μCi; 2 h; n=4; read-out: Biodistribution: Lac gl
measure name: tissue uptake at 2 h (%ID/g)
Numbers only here, please. The scale is %ID/g.

Q: What tissue uptake at 2 h value was documented for this compound, N#C[C@@H]1CCCN1C(=O)CNC(=O)c1ccnc2ccc(OCCCNC(=O)CCc3cn(CCOCCOCCOCCOCCOCCOCCC(=O)N[C@@H](CCCCNC(=O)CN4CCN(CC(=O)O)CCN(CC(=O)O)CC4)C(=O)NCCCCC(=O)N(CCCC[C@H](NC(=O)N[C@@H](CCC(=O)O)C(=O)O)C(=O)O)Cc4ccc(Br)cc4)nn3)cc12 ?
Ans: 7
